Data origin: ChEMBL document CHEMBL1128011

study.system: Type-1 angiotensin II receptor B (Rattus norvegicus)
Sequence (P29089 whole entry): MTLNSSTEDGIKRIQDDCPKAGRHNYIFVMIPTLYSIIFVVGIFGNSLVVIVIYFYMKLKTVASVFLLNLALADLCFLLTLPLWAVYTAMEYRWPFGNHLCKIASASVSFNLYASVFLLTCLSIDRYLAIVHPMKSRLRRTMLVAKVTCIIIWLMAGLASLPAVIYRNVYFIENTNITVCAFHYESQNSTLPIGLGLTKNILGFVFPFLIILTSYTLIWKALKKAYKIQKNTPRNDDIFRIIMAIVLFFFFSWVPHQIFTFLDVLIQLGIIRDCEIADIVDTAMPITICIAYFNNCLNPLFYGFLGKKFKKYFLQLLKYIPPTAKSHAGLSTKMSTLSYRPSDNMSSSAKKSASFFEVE
assay.text: Inhibition of [125-I]-labeled angiotensin II binding to AT1 receptor in rat uterine membranes
Assay type: cell membranes, Membrane
outcome.measure: IC50 (nM)

* CCCCc1nc(CCCC)n2c1C=CCC2c1ccc(-c2ccccc2-c2nn[nH]n2)cc1 (stereo unspecified) | 190

a. CCCCc1cn(Cc2ccc(-c3ccccc3-c3nnn[nH]3)cc2)c(CCCC)n1
b. CCCCc1ncc2n1C(c1ccc(-c3ccccc3-c3nnn[nH]3)cc1)CC=C2 (stereo unspecified)
c. CCCCc1nc(Cl)c2n1[C@H](c1ccc(-c3ccccc3-c3nn[nH]n3)cc1)CC[C@@H]2N1C(=O)CCC1=O
Reorder: IC50, max to min. Put the labels in the requested order and list them out. b, a, c
(b: 120 nM, a: 63 nM, c: 11 nM)
